The values you see were collected from the supplement of paper PMC6522484.

Overview of recorded cell viability for various compounds
System: DLD1
protocol_description: cell viability (CellTiter-Glo) relative to plate median (fraction of plate median); higher = more viable cells
experimental_parameters: 5 µM; treatment time 24 h; reporter: 7TFP

[
  {
    "compound": "Nc1ccncc1",
    "cell viability": 1.02
  },
  {
    "compound": "COc1ccc(C(=O)O)cc1OC",
    "cell viability": 0.902
  },
  {
    "compound": "COc1c2c(c(CC=C(C)C)c3oc(=O)c(-c4ccc(O)cc4)c(O)c13)OC(C)(C)C=C2",
    "cell viability": 0.95
  },
  {
    "compound": "CC(=O)O[C@@H]1CC[C@@]2(C)[C@@H](CC[C@@H]3[C@@H]2CC[C@]2(C)C(=O)CC[C@@H]32)C1",
    "cell viability": 1.02
  },
  {
    "compound": "NCCc1ccc(O)cc1",
    "cell viability": 0.964
  },
  {
    "compound": "COc1ccc(C(=O)O[C@H]2CC[C@@]3(C)[C@@H]4CC[C@H]5[C@]6(O)C[C@H](O)[C@@]7(O)[C@@H](CN8C[C@@H](C)CC[C@H]8[C@@]7(C)O)[C@]6(O)C[C@@]53O[C@]24O)cc1OC",
    "cell viability": 0.98
  },
  {
    "compound": "O=C(O)CF",
    "cell viability": 0.951
  },
  {
    "compound": "CC(=O)NC1CCSC1=O (stereo unspecified)",
    "cell viability": 1.03
  },
  {
    "compound": "COc1cc([C@@H]2c3cc4c(cc3[C@H](O)[C@H]3COC(=O)[C@H]23)OCO4)cc(OC)c1OC",
    "cell viability": 0.903
  },
  {
    "compound": "CNC(=O)ON=C(C)SC",
    "cell viability": 1.01
  },
  {
    "compound": "Cc1nccc2c1[nH]c1cc(O)ccc12",
    "cell viability": 0.984
  }
]
